Values from patent US20240109917A1

Target: PDGFRβ (Rattus norvegicus (Rat))
Sequence (Q05030 32-1097): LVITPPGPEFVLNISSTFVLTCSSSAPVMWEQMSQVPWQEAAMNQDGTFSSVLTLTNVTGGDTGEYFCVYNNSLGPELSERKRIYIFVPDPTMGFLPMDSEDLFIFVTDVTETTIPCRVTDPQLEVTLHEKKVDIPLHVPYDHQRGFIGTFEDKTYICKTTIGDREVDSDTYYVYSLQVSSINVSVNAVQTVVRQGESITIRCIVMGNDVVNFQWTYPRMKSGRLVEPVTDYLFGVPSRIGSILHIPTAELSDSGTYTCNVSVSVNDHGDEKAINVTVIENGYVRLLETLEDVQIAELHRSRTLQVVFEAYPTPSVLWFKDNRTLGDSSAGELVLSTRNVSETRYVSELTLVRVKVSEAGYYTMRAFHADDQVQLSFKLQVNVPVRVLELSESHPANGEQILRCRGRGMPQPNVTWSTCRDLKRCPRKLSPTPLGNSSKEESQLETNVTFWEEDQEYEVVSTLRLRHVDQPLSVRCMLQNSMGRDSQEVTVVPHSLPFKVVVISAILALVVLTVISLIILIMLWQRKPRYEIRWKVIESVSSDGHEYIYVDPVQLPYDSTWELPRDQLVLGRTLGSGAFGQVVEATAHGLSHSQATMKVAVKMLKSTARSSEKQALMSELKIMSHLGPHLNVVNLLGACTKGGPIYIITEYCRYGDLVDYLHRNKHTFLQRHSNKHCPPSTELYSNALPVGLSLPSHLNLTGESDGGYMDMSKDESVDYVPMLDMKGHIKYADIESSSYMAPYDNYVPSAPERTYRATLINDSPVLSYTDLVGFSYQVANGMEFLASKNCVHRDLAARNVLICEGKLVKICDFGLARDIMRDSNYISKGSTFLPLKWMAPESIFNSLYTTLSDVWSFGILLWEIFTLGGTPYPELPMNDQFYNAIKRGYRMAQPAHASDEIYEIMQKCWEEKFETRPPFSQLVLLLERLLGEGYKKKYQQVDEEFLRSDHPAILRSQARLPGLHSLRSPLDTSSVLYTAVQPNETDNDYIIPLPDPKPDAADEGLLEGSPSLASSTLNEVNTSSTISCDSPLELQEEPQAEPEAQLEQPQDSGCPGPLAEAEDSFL
Assay: PDGFRβ Cellular Assay (PDGFRb P-Y751 HTRF in A10 cells stimulated with PDGF-BB)
Format: cell-based
Details: read-out: PDGFR Cellular IC50
Recorded measurements of log10 IC50, one per entry
// units: µM (pre-log); metric: IC50; scale: log10

| structure.smiles | log10 IC50 |
| --- | --- |
| Cc1ncc(C(=O)NCCN2CCCC2)cc1NC(=O)c1cnn2cc(-c3cnn(C)c3)sc12 | -0.91 |
| Cc1ncc(NC(=O)C[C@@H]2CCCN2C(C)C)cc1NC(=O)c1cnn2cc(-c3cccnc3O)sc12 | -0.91 |
| Cc1ncc(NC(=O)CN(C)C2CCOCC2)cc1NC(=O)c1cnn2cc(-c3cnn(C4CCC4)c3)sc12 | -2.12 |
| Cc1ncc(NC(=O)C[C@H]2CCN(C(C)C)C2)cc1NC(=O)c1cnn2cc(-c3cnn(C)c3)sc12 | 0.27 |

Could you now consider this next compound?
Dear colleague, I am looking for the recorded log10 IC50 of the following compound: COCCn1cc(-c2cn3ncc(C(=O)Nc4cc(C(=O)NCCN5CCC(F)(F)C5)cnc4C)c3s2)cn1
-1.61
